- assayed system: Coagulation factor X (Homo sapiens)
- Sequence (P00742 41-179 limits assumed): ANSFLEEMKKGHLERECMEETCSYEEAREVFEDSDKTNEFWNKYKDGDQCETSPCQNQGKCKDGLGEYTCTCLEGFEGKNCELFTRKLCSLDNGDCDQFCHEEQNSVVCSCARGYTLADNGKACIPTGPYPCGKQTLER
- Sequence (P00742 235-488 limits assumed): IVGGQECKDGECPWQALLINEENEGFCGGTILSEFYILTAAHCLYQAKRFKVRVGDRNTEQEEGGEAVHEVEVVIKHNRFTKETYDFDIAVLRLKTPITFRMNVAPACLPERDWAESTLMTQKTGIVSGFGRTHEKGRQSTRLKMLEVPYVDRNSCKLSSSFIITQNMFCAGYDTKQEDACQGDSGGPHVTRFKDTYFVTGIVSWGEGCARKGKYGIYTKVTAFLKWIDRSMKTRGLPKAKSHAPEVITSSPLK
pKi: −log10 of the molar value.
property: pKi

smiles code: CC(C)OC(=O)[C@H]1CCCN(C(=O)[C@H](Cc2cccc(C(=N)N)c2)NS(=O)(=O)c2ccc3ccccc3c2)C1
pKi: 4.80

[I] CC(C)OC(=O)[C@H](Cc1cccc(C(=N)N)c1)NS(=O)(=O)c1ccc2ccccc2c1
[II] CNC(=O)[C@H](Cc1cccc(C(=N)N)c1)NS(=O)(=O)c1c(C)cc(C)cc1C
// compare measured pKi, left I , right II , return larger Which one? Tell me its label.
I

----------
- assayed system: Serine protease 1 (Bos taurus, UniProt P00760)
- Sequence (P00760 whole entry): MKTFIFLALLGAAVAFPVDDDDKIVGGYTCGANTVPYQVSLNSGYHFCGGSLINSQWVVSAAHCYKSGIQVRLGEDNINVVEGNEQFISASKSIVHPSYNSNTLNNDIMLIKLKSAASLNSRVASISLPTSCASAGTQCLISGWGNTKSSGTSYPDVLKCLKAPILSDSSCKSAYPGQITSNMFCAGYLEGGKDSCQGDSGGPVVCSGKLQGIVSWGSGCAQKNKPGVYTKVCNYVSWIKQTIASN
pKi: −log10 of the molar value.
property: pKi

smiles code: Cc1ccc(S(=O)(=O)N[C@@H](Cc2cccc(C(=N)N)c2)C(=O)N2CCOCC2)cc1
pKi: 6.15
//
smiles code: COC(=O)[C@@H]1CCCN1C(=O)[C@H](Cc1cccc(C(=N)N)c1)NS(=O)(=O)c1ccc2ccccc2c1
pKi: 5.09
//
smiles code: CS(=O)(=O)N1CCN(C(=O)[C@@H](N)Cc2cccc(C(=N)N)c2)CC1
pKi: 4.54

[I] COC(=O)C1CCN(C(=O)[C@H](Cc2cccc(C(=N)N)c2)NS(=O)(=O)c2c(C)cc(C)cc2C)CC1
[II] CC1CCN(C(=O)[C@H](Cc2cccc(C(=N)N)c2)NS(=O)(=O)c2ccc(C(C)(C)C)cc2)CC1
// compare measured pKi, left I , right II , return larger Which one? Tell me its label.
II

----------
Observed pKi for Coagulation factor X (Homo sapiens), reported per entry below.
pKi: −log10 of the molar value.
property: pKi

smiles code: N=C(N)c1cccc(C[C@H](NS(=O)(=O)c2ccc3ccccc3c2)C(=O)N2Cc3ccccc3C[C@@H]2C(=O)O)c1
pKi: 4.38

[A] Cc1cc(C)c(S(=O)(=O)N[C@@H](Cc2cccc(C(=N)N)c2)C(=O)N2CCC(C)CC2)c(C)c1
[B] N=C(N)c1cccc(C[C@H](NS(=O)(=O)c2ccc3ccccc3c2)C(=O)N2CCCCC2)c1
Select one. Lower pKi: A or B Which one? Tell me its label.
A
(A: 4.02, B: 4.42)

----------
Observed Ki for Prothrombin (Bos taurus, UniProt P00735), reported per entry below.
property: Ki (nM)

Below: 3 compounds and their reported Ki.
smiles code: N=C(N)c1cccc(C[C@H](NS(=O)(=O)c2ccc3ccccc3c2)C(=O)N2CCOCC2)c1
property: Ki
output unit: nM
experimental result: 42

smiles code: CC(C)OC(=O)C1CCN(C(=O)[C@H](Cc2cccc(C(=N)N)c2)NS(=O)(=O)c2ccc3ccccc3c2)CC1
property: Ki
output unit: nM
experimental result: 710

smiles code: N=C(N)c1cccc(C[C@H](NS(=O)(=O)c2ccc3ccccc3c2)C(=O)N2CCC[C@H](C(=O)O)C2)c1
property: Ki
output unit: nM
experimental result: 1100

[A] CC(C)c1cc(C(C)C)c(S(=O)(=O)N[C@@H](Cc2cccc(C(=N)N)c2)C(=O)N2CCC[C@H](C(=O)NCc3ccccc3)C2)c(C(C)C)c1
[B] N=C(N)c1cccc(C[C@H](NS(=O)(=O)c2ccc3ccccc3c2)C(=O)N2CCCCCC2)c1
// compare measured Ki, left A , right B , return larger Which one? Tell me its label.
A
(A: 1800 nM, B: 21 nM)

[a] CN(C)c1cccc2c(S(=O)(=O)N[C@@H](Cc3cccc(C(=N)N)c3)C(=O)N3CCN(S(C)(=O)=O)CC3)cccc12
[b] CC(C)c1cc(C(C)C)c(S(=O)(=O)N[C@@H](Cc2cccc(C(=N)N)c2)C(=O)N2CCC[C@H](C(=O)OCc3ccccc3)C2)c(C(C)C)c1
Select one. Lower Ki: a or b Which one? Tell me its label.
a

[1] N=C(N)c1cccc(C[C@H](NS(=O)(=O)c2ccc3ccccc3c2)C(=O)N2CCC(C(=O)NCc3ccccc3)CC2)c1
[2] N=C(N)c1cccc(C[C@H](NS(=O)(=O)c2ccc3ccccc3c2)C(=O)N2Cc3ccccc3C[C@@H]2C(=O)OCc2ccccc2)c1
[3] N=C(N)c1cccc(C[C@H](NS(=O)(=O)c2ccc3ccccc3c2)C(=O)N2CCC(C(=O)OCc3ccccc3)CC2)c1
[4] Cc1ccc(S(=O)(=O)N[C@@H](Cc2cccc(C(=N)N)c2)C(=O)N2CCCC2)cc1
Arrange these 4 compounds in increasing order of Ki. Put the labels in the order asked and list them.
3, 4, 2, 1

[P] COC(=O)[C@H]1CCC[C@H](C)N1C(=O)[C@H](Cc1cccc(C(=N)N)c1)NS(=O)(=O)c1ccc2ccccc2c1
[Q] N=C(N)c1cccc(C[C@H](NS(=O)(=O)c2ccc3ccccc3c2)C(=O)OCc2ccccc2)c1
Select one. Lower Ki: P or Q Which one? Tell me its label.
Q
(Q: 42 nM, P: 420 nM)

----------
- assayed system: UniProt:P00760
- experiment: Binding affinity towards trypsin
pKi: −log10 of the molar value.
property: pKi

smiles code: CNC(=O)[C@H](Cc1cccc(C(=N)N)c1)NS(=O)(=O)c1ccc(C)cc1
experimental result: 4.34
//
smiles code: CC(=O)N1CCN(C(=O)[C@H](Cc2cccc(C(=N)N)c2)NS(=O)(=O)c2ccc3ccccc3c2)CC1
experimental result: 6.85

[I] N=C(N)c1cccc(C[C@H](NS(=O)(=O)c2ccc3ccccc3c2)C(=O)N2CCC(C(=O)OCc3ccccc3)CC2)c1
[II] N=C(N)c1cccc(C[C@H](NS(=O)(=O)c2cccc3ccccc23)C(=O)N2CCCCC2)c1
[III] N=C(N)c1cccc(C[C@H](NS(=O)(=O)c2ccc3ccccc3c2)C(=O)N2CC[C@@H]3CCCC[C@H]32)c1
Hello, I need these entries ordered by pKi, highest reading first. Thanks! Put the labels in the order asked and list them.
I, II, III

----------
Observed Ki for Coagulation factor X (Homo sapiens), reported per entry below.
property: Ki (µM)

smiles code: N=C(N)c1cccc(C[C@H](NS(=O)(=O)c2ccc3ccccc3c2)C(=O)N2CCc3ccccc3C2)c1
property: Ki
experimental result: 18

smiles code: N=C(N)c1cccc(C[C@H](NS(=O)(=O)c2ccc3ccccc3c2)C(=O)N2CCOCC2)c1
property: Ki
experimental result: 16

smiles code: CC1CCN(C(=O)[C@H](Cc2cccc(C(=N)N)c2)NS(=O)(=O)c2cccc3ccccc23)CC1
property: Ki
experimental result: 42

smiles code: N=C(N)c1cccc(C[C@H](NS(=O)(=O)c2ccc3ccccc3c2)C(=O)N2CC[C@@H]3CCCC[C@H]32)c1
property: Ki
experimental result: 13

smiles code: COC(=O)[C@H]1CCCCN1C(=O)[C@H](Cc1cccc(C(=N)N)c1)NS(=O)(=O)c1ccc2ccccc2c1
property: Ki
experimental result: 46

----------
Observed Ki for Prothrombin (Bos taurus, UniProt P00735), reported per entry below.
Reply numerically in µM, unit not repeated.

Below: 5 compounds and their reported Ki.
smiles code: N=C(N)c1cccc(C[C@H](NS(=O)(=O)c2ccc3ccccc3c2)C(=O)N2CCC[C@H](C(=O)NCc3ccccc3)C2)c1
Ki / µM: 0.28

smiles code: N=C(N)c1cccc(C[C@H](NS(=O)(=O)c2ccc3ccccc3c2)C(=O)N2CCCC2)c1
Ki / µM: 0.052

smiles code: CC(C)c1cc(C(C)C)c(S(=O)(=O)N[C@@H](Cc2cccc(C(=N)N)c2)C(=O)N2CCN(S(C)(=O)=O)CC2)c(C(C)C)c1
Ki / µM: 0.28

smiles code: CC1CCN(C(=O)[C@H](Cc2cccc(C(=N)N)c2)NS(=O)(=O)c2cccc3ccccc23)CC1
Ki / µM: 0.016

smiles code: N=C(N)c1cccc(C[C@H](NS(=O)(=O)c2ccc3ccccc3c2)C(=O)N2CCC(C(=O)O)CC2)c1
Ki / µM: 0.57

Which Ki is reported with Prothrombin (Bos taurus, UniProt P00735) for this entry: COC(=O)C1CCN(C(=O)[C@H](Cc2cccc(C(=N)N)c2)NS(=O)(=O)c2c(C(C)C)cc(C(C)C)cc2C(C)C)CC1 ?
0.151

Which Ki is reported with Prothrombin (Bos taurus, UniProt P00735) for this entry: CS(=O)(=O)N1CCN(C(=O)[C@H](Cc2cccc(C(=N)N)c2)NS(=O)(=O)c2cccc3ccccc23)CC1 ?
0.026

Which Ki is reported with Prothrombin (Bos taurus, UniProt P00735) for this entry: Cc1ccc(S(=O)(=O)N[C@@H](Cc2cccc(C(=N)N)c2)C(=O)N2CCC(C)CC2)cc1 ?
0.026

Which Ki is reported with Prothrombin (Bos taurus, UniProt P00735) for this entry: CN(C)C(=O)N1CCN(C(=O)[C@H](Cc2cccc(C(=N)N)c2)NS(=O)(=O)c2ccc3ccccc3c2)CC1 ?
0.00871

Which Ki is reported with Prothrombin (Bos taurus, UniProt P00735) for this entry: COC(=O)C1CCN(C(=O)[C@H](Cc2cccc(C(=N)N)c2)NS(=O)(=O)c2ccc3ccccc3c2)CC1 ?
0.017

Measured values drawn from ChEMBL document CHEMBL1132189 for this set.
